Hello, the source for this data is the supplement of paper PMC7021759, in case you need it.

Test system: SK-N-MM (SKNMM-MYCN, doxycycline-inducible MYCN)
method-notes: area under dose-response curve (CellTiter-Glo viability normalised to plate controls) (AUC (arbitrary units)); higher = more loss of viability; extreme values may be limits of the assay
test-conditions: MYCN induction (doxycycline): no doxycycline (MYCN not induced); time after drugging: 8 days
Could you please report measured area under dose-response curve for the items listed next?

Documented area under dose-response curve of `S=c1[nH]cnc2nc[nH]c12` : 13.1

Documented area under dose-response curve of `COc1cc2nccc(Oc3ccc(NC(=O)Nc4cc(C)on4)c(Cl)c3)c2cc1OC` : 0

Documented area under dose-response curve of CCC(C)n1ncn(-c2ccc(N3CCN(c4ccc(OCC5COC(Cn6cncn6)(c6ccc(Cl)cc6Cl)O5)cc4)CC3)cc2)c1=O (centres undefined) : 26.1

Documented area under dose-response curve of CC1=C(CC(=O)O)c2cc(F)ccc2/C1=C\c1ccc([S+](C)[O-])cc1 (centres undefined) : 0

Documented area under dose-response curve of `COc1cc2c(NC3CCN(C(C)C)CC3)nc(N3CCC(F)(F)CC3)nc2cc1OCCCN1CCCC1` : 145

Documented area under dose-response curve of `CN[C@H]1CN(c2ccc3c(=O)c(C(=O)O)cn(-c4nccs4)c3n2)C[C@@H]1OC` : 48.5

Documented area under dose-response curve of `Cc1cc(Nc2cc(N3CCN(C)CC3)nc(/C=C/c3ccccc3)n2)n[nH]1` : 111

Documented area under dose-response curve of `CC(C)(C#N)c1cc(Cn2cncn2)cc(C(C)(C)C#N)c1` : 77.4

Documented area under dose-response curve of `O=C(Nc1ccccc1-c1cn2c(CN3CCNCC3)csc2n1)c1cnc2ccccc2n1` : 213
